Test system: HT-29 cells
Assay: Additional cytotoxicity assays, resazurin (Table 3.1)
Type: cell-based, human
Settings: Table 3.1
Listing of recorded % cytotox Mean by entry.
Remember to follow the number with its unit.

Guide cases for % cytotox Mean, answers given:
- Molecule: "Cc1ccc(/C=c2\\[nH]c(=O)/c(=C/c3nc[nH]c3C(C)(C)C)[nH]c2=O)s1"
  % cytotox Mean: "85%"
- Molecule: "COc1cccc2cc3c(=O)[nH]/c(=C\\c4nc[nH]c4C(C)(C)C)c(=O)n3c12"
  % cytotox Mean: "58%"

Data request, read-out % cytotox Mean, for CC(C)(C)c1[nH]cnc1/C=c1\[nH]c(=O)/c(=C/c2cccc(OC(F)(F)F)c2)[nH]c1=O
87%

Data request, read-out % cytotox Mean, for CCc1ccc(/C=c2\[nH]c(=O)/c(=C/c3nc[nH]c3C(C)(C)C)[nH]c2=O)s1
87%

Data request, read-out % cytotox Mean, for C=CC(C)(C)c1[nH]cnc1/C=C1\NC(=O)[C@H](Cc2ccccc2)NC1=O [Compound 2350, reference compound]
87%

Data request, read-out % cytotox Mean, for C=CC(C)(C)c1[nH]cnc1/C=c1\[nH]c(=O)/c(=C/c2ccccc2)[nH]c1=O [Compound 2352, Dehydrophenylahistin]
86%

---

System: MES-SA/Dx5 (Taxol Resistant) human uterine sarcoma
Assay: Drug resistant cell line pair, cytotoxicity (Example 10B)
Format: cell-based
Settings: Homo sapiens, MES-SA/Dx5, MES-SA/DX5 Resistant, No CsA; Studies I-III in separate lines
Measured Quantity: IC50 (nM)
Write the number in nM without appending the unit.

Please tell me: IC50 of CC(C)(C)c1[nH]cnc1/C=C1\NC(=O)[C@H](Cc2ccccc2)NC1=O [t-butyl-phenylahistin] , system MES-SA/Dx5 (Taxol Resistant) human uterine sarcoma?
825

---

System: HT-29 human colon cells
Experiment: Tumor cytotoxicity assay, resazurin fluorescence, 48 h (Example 6)
Format: cell-based
Settings: Homo sapiens, HT-29; Table 5, synthetic potent dehydroPLH derivatives
Measured Quantity: EC50 (nM)
Write the number in nM without appending the unit.

Data request, read-out EC50, for CC(C)(C)c1[nH]cnc1/C=c1\[nH]c(=O)/c(=C/c2ccccc2)[nH]c1=O [KPU-2, tBu-dehydro-PLH]
13

---

System: HT-29 human colon cells
Experiment: Tumor cytotoxicity assay, resazurin fluorescence, 48 h (Example 6)
Assay type: cell-based
Conditions: Homo sapiens, HT-29; Table 3; read-out: EC50 (nM) HT-29
Returns: string. Value is met if measured EC50 is below 4000 nM, and not met if it is greater than or equal to it.

Known results for molecules:
- Smiles Str: "CC(C)(C)c1[nH]cnc1/C=c1\\[nH]c(=O)/c(=C/c2ccc3c(c2)OCO3)[nH]c1=O"
  Cat: "met"
- Smiles Str: "COc1cccc(/C=c2\\[nH]c(=O)/c(=C/c3nc[nH]c3C(C)(C)C)[nH]c2=O)c1O"
  Cat: "not met"
- Smiles Str: "CC(C)(C)c1[nH]cnc1/C=c1\\[nH]c(=O)/c(=C/c2cc([N+](=O)[O-])ccc2Cl)[nH]c1=O"
  Cat: "met"
- Smiles Str: "Cc1ccsc1/C=c1\\[nH]c(=O)/c(=C/c2nc[nH]c2C(C)(C)C)[nH]c1=O"
  Cat: "met"
- Smiles Str: "Cc1ccc(/C=c2\\[nH]c(=O)/c(=C/c3nc[nH]c3C(C)(C)C)[nH]c2=O)s1"
  Cat: "met"
- Smiles Str: "COc1cccc2cc3c(=O)[nH]/c(=C\\c4nc[nH]c4C(C)(C)C)c(=O)n3c12"
  Cat: "not met"

Now turn to the next molecule.
Does the reported EC50 of COc1cc(/C=c2\[nH]c(=O)/c(=C/c3nc[nH]c3C(C)(C)C)[nH]c2=O)cc(OC)c1 stay below 4000 nM?
met

---

Target: Lyn (mouse) (Mus musculus)
Sequence (P25911 whole entry): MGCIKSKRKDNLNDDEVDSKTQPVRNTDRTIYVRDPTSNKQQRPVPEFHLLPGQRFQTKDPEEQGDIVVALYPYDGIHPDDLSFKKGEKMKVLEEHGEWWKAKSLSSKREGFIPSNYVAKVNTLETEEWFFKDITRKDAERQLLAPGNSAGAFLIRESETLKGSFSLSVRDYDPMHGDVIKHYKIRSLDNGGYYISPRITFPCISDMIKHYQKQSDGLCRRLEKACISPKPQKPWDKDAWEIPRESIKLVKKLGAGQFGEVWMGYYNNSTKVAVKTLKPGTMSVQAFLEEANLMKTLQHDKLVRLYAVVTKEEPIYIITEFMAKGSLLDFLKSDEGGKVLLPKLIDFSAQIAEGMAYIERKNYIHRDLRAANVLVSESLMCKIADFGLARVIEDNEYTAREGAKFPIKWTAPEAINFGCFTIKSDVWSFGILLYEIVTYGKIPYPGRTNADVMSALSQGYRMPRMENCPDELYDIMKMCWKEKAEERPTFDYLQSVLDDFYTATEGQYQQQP
Measured Quantity: IC50
Remember to follow the number with its unit.

Data request, read-out IC50, for CC(C)(C)c1[nH]cnc1/C=c1\[nH]c(=O)/c(=C/c2ccccc2)[nH]c1=O [KPU-2, tBu-dehydro-PLH]
11.1 µM

---

Listing of recorded melting point by entry.

- Molecule: "CC(C)(C)c1ocnc1/C=c1\\[nH]c(=O)/c(=C/c2cccc3ccccc23)[nH]c1=O"
  melting point: "168 to 170 °C"
- Molecule: "CC(C)(C)c1ocnc1/C=c1\\[nH]c(=O)/c(=C/c2cccc(Cl)c2Cl)[nH]c1=O"
  melting point: "198 to 200 °C"
- Molecule: "CCOc1ccc2ccccc2c1/C=c1\\[nH]c(=O)/c(=C/c2ncoc2C(C)(C)C)[nH]c1=O [KPU-229]"
  melting point: "201 to 203 °C"
- Molecule: "COc1ccccc1/C=c1\\[nH]c(=O)/c(=C/c2ncoc2C(C)(C)C)[nH]c1=O [KPU-224]"
  melting point: "151 to 153 °C"

Data request, read-out melting point, for Cc1oc(-c2ccccc2)cc1/C=c1\[nH]c(=O)/c(=C/c2ncoc2C(C)(C)C)[nH]c1=O
218 to 220 °C

Data request, read-out melting point, for CC(C)(C)c1ocnc1/C=c1\[nH]c(=O)/c(=C/c2c3ccccc3cc3ccccc23)[nH]c1=O [KPU-231]
274 to 276 °C

Data request, read-out melting point, for Cc1ccsc1/C=c1\[nH]c(=O)/c(=C/c2ncoc2C(C)(C)C)[nH]c1=O [KPU-219]
142 to 144 °C

Data request, read-out melting point, for Cc1cccc(/C=c2\[nH]c(=O)/c(=C/c3ncoc3C(C)(C)C)[nH]c2=O)c1
151 to 153 °C

Data request, read-out melting point, for CC(C)(C)c1ocnc1/C=c1\[nH]c(=O)/c(=C/c2cc(F)cc3c2OCOC3)[nH]c1=O
189 to 191 °C

Data request, read-out melting point, for COc1ccc2ccccc2c1/C=c1\[nH]c(=O)/c(=C/c2ncoc2C(C)(C)C)[nH]c1=O [KPU-230]
234 to 236 °C

Data request, read-out melting point, for CC(C)(C)c1ocnc1/C=c1\[nH]c(=O)/c(=C/c2ccc(Cl)o2)[nH]c1=O
214 to 216 °C

Data request, read-out melting point, for CC(C)(C)c1ocnc1/C=c1\[nH]c(=O)/c(=C/c2c(F)c(F)cc(F)c2F)[nH]c1=O [KPU-236]
194 to 196 °C

Data request, read-out melting point, for CC(C)(C)c1ocnc1/C=c1\[nH]c(=O)/c(=C/c2ccccc2F)[nH]c1=O [KPU-214]
170 to 172 °C

Data request, read-out melting point, for CC(C)(C)c1ocnc1/C=c1\[nH]c(=O)/c(=C/c2cc3ccccc3s2)[nH]c1=O
225 to 227 °C

---

Target: c-RAF (human) (Homo sapiens, UniProt P04049)
Sequence (P04049 whole entry): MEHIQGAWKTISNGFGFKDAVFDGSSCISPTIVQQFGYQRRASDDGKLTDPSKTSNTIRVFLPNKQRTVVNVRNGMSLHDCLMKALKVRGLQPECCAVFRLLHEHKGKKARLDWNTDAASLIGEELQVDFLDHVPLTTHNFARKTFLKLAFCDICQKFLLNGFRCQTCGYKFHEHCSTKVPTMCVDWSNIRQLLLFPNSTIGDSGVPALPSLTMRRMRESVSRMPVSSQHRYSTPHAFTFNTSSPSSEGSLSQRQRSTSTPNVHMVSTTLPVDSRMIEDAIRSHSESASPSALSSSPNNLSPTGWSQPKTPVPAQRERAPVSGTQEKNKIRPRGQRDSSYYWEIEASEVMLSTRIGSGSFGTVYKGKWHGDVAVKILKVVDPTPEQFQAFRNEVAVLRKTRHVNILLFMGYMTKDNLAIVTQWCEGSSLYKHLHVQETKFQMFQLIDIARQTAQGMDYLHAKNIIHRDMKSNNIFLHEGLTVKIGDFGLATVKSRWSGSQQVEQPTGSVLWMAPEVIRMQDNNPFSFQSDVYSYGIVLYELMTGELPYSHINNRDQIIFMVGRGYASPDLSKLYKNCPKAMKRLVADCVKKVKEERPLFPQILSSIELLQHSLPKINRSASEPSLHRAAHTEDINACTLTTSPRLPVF
Measured Quantity: pIC50
Please keep in mind that pIC50 is minus log10 of the molar concentration; only the number is needed.

Data request, read-out pIC50, for CC(C)(C)c1[nH]cnc1/C=c1\[nH]c(=O)/c(=C/c2ccccc2)[nH]c1=O [KPU-2, tBu-dehydro-PLH]
5.05

---

Listing of recorded EC50 by entry.
Test system: HT-29 human colon cells
Test: Tumor cytotoxicity assay, resazurin fluorescence, 48 h (Example 6)
Type: cell-based
Conditions: Homo sapiens, HT-29; Table 2; read-out: EC50 (nM) HT-29
Write the number in nM without appending the unit.

- Compound: "C=CC(C)(C)c1[nH]cnc1/C=c1\\[nH]c(=O)/c(=C/c2ccccc2)[nH]c1=O [KPU-1, Dehydrophenylahistin]"
  Numeric Readout: 48

Would you kindly look at the next entry?
Data request, read-out EC50, for C=CC(C)(C)c1[nH]cnc1/C=C1\NC(=O)[C@H](Cc2ccccc2)NC1=O [(−)-Phenylahistin, reference compound]
1600

---

System: HT-29 cells
Assay: Additional cytotoxicity assays, resazurin (Table 3.1)
Assay type: cell-based, human
Conditions: Homo sapiens, HT-29; Table 3.1; read-out: EC50 (M) Mean
Description: 10× concentrated serial dilutions of the two compounds were prepared in appropriate culture medium for final concentrations ranging from 2.0×10^−5 M to 2.0×10^−10 M. Ten μl volumes of the 10× serial dilutions were added to the test wells in triplicate and the plates returned to the incubator for 48 hours. […] Additional cytotoxicity assays were performed as described above under this example, using Resazurin fluorescence as an indicator of cell viability.
Listing of recorded log10 of EC50 by entry.
Heads up: the numbers are on a log10 scale; they represent EC50 in M.

Guide cases for log10 of EC50, answers given:
- Smiles Str: "COc1ccc(/C=c2\\[nH]c(=O)/c(=C/c3nc[nH]c3C(C)(C)C)[nH]c2=O)c(OC)c1OC"
  Numeric Readout: -5.32
- Smiles Str: "CC(C)(C)c1[nH]cnc1/C=c1\\[nH]c(=O)/c(=C/c2cc([N+](=O)[O-])ccc2Cl)[nH]c1=O"
  Numeric Readout: -7.27

Data request, read-out log10 of EC50, for COc1cccc(/C=c2\[nH]c(=O)/c(=C/c3nc[nH]c3C(C)(C)C)[nH]c2=O)c1[N+](=O)[O-]
-6.18

Data request, read-out log10 of EC50, for Cc1c(F)cccc1/C=c1\[nH]c(=O)/c(=C/c2nc[nH]c2C(C)(C)C)[nH]c1=O
-7.48

Data request, read-out log10 of EC50, for Cc1ccc(F)c(/C=c2\[nH]c(=O)/c(=C/c3nc[nH]c3C(C)(C)C)[nH]c2=O)c1
-7.60

Data request, read-out log10 of EC50, for CC(C)(C)c1[nH]cnc1/C=c1\[nH]c(=O)/c(=C/c2cc(I)ccc2F)[nH]c1=O
-7.38

Data request, read-out log10 of EC50, for CC(C)(C)c1[nH]cnc1/C=c1\[nH]c(=O)/c(=C/c2ccc3c(c2)OCO3)[nH]c1=O
-7.06

Data request, read-out log10 of EC50, for CCc1ccc(/C=c2\[nH]c(=O)/c(=C/c3nc[nH]c3C(C)(C)C)[nH]c2=O)o1
-6.62

Data request, read-out log10 of EC50, for CC(C)(C)c1[nH]cnc1/C=c1\[nH]c(=O)/c(=C/c2sccc2B(O)O)[nH]c1=O
-7.60

Data request, read-out log10 of EC50, for CC(C)(C)c1[nH]cnc1/C=c1\[nH]c(=O)/c(=C/c2cc(Cl)cc(Cl)c2)[nH]c1=O
-7.02

Data request, read-out log10 of EC50, for CCc1ccc(/C=c2\[nH]c(=O)/c(=C/c3nc[nH]c3C(C)(C)C)[nH]c2=O)s1
-6.88

// data source = patent US8129527B2
